- Target Under Test: T1, DVL3, Q92997
- T1 sequence (Q92997 244-331, limits assumed, looked up): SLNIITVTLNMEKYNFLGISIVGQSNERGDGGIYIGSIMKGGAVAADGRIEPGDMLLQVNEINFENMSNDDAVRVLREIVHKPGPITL
- Method Summary: holdup assay
- Parameters: key: below the threshold = too weak to quantify, mostly under pKd 3.1 to 4
- Conditions: plain residues with an end cap or a label only (N-terminal biotin on a linker: ado-ado)
Property Label: pKd

1. KLQNPNQSVV [TYRP1, P17643]: below the threshold
2. EKPIDSETKM [SLC1A3, P43003]: below the threshold
3. KIEDVEITLV [FCHSD2, O94868]: below the threshold
4. RDYTQSSSSL [GRM5, P41594]: below the threshold
5. HYPASPDSWV [CTNND2, Q9UQB3]: 4.04

Now let's try a different one.
Q. Find the recorded pKd belonging to VISSDDLTEL [CAPN6, Q9Y6Q1] and report it.
A. below the threshold
